system: Wolbachia pipientis; test: Anti-Wolbachia Cell-Based Screen; type: functional; set-up: scale not given: in the data most compounds retested in dose-response had high values; conditions: 5 µM
The whole screen tested about 48,000 compounds, of which about 13,000 (27%) showed an effect of 50% or more. This is one part of the list.
QUANTITY_MEASURED: Percent Effect (%)
Just the number in %, nothing appended.

// fetch Percent Effect given entry CCOC(=O)CCCNc1nc(C(C)(C)C)nc2c1cnn2C
0.3135

Output measured Percent Effect for this item: CN1CCC2(C=C(C(=O)N(C)C)c3ccccc32)CC1
111.1

Please give the documented Percent Effect of Cc1cc(C)nc(NCc2cc3n(n2)CCCN(C(=O)C2CCC2)C3)n1
104.2

Provide Percent Effect value for the following compound: COc1cccc(-c2noc(C3CCN(Cc4ccccc4F)C3)n2)c1.Cl (centres undefined)
108.2

Specify Percent Effect for COc1cccc(-c2ncc(CN3CC[C@H](CO)[C@@H](O)C3)s2)c1 and stop.
10.62

Output Percent Effect of CSCC(C)NCc1ccc2[nH]c(C)c(C)c2c1 (centres undefined)
7.257

For the compound CN(CCc1ccccc1)c1cnn(CC(=O)N2CCOCC2)c(=O)c1 , give its measured Percent Effect value.
17.19

Note down Percent Effect recorded for Cc1cc(NCc2cc3n(n2)CCCN(C(=O)C2CCC2)C3)ncn1
87.84

// Input: COC(=O)c1cccc2nc([C@H]3CCN(Cc4ccccc4F)C3)oc12 . Output its Percent Effect only.
4.5

State its Percent Effect for this compound: CN1CCC2(C=C(C(=O)N3CCCC3)c3ccccc32)CC1.O=C(O)C(F)(F)F
-7.584

Could you please provide reported Percent Effect for COc1coc(C(=O)Nc2nc(-c3ccccn3)cs2)cc1=O ? Thanks!
131

For the compound Cc1ncsc1CCN(C)C(=O)C(c1cccnc1)N1CCOCC1 (centres undefined) , give its reported Percent Effect.
2.321

# return recorded Percent Effect for entry CC(=O)N1CCCn2nc(CNc3cc(C)ncn3)cc2C1
18.58

Return reported Percent Effect. Input compound: CCC(=O)N1CCC2(C=C(C(=O)N(C)C)c3ccccc32)CC1
99.74

Tell me measured Percent Effect for CCn1cc(C#N)c(=O)c2cc(Br)ccc21 please.
-20.97

Specify measured Percent Effect for O=C1CN(Cc2cn(CC3CCN(C4CCSCC4)CC3)nn2)CCN1 .
-10.54

For the compound CC(C)N(CC1CCCN(CC(N)=O)C1)C(=O)OC(C)(C)C (centres undefined) , give its reported Percent Effect.
12.71

Look up Percent Effect of COc1c(C2CCCN2Cc2csc(C(C)C)n2)c(C)nn1C (centres undefined) and report it.
4.743

Tell me its Percent Effect given CCn1ncnc1CN(CCOC)Cc1ccc(C)cc1 as the entry.
-0.7993

Give the reported Percent Effect for this compound. CCn1nccc1CN(C)c1[nH]cnc2nc(C)nc1-2
80.56

Supply measured Percent Effect of O=C(NC[C@H]1OC[C@@H](NC2CCC(F)(F)CC2)[C@@H]1O)c1ccccc1 in your reply.
-10.21

Provide one value: measured Percent Effect of COCCOc1ncccc1C(=O)N(C)c1ccc(OC)nc1
-5.142

Dear colleague, please send me the reported Percent Effect for CS(=O)(=O)N1CCCn2nc(CNc3ncccn3)cc2C1 when you can.
-7.874

Return value of Percent Effect for input Cc1cccc(CN(C(=O)CS(C)(=O)=O)C(C)C)c1 , no commentary.
-6.499
